biological target: VISTA (V-type immunoglobulin domain–containing suppressor of T-cell activation) (Homo sapiens); construct: gene VSIR; human VISTA-ECD protein; assay: SPR (Biacore T200, human VISTA immobilized on CM5 chip); type: binding
quantityKind: pKd
One number for each entry, as −log10 of the molar value.

Request: Given "O=C1c2c(O)c(=O)ccn2N([C@@H]2c3ccccc3SCc3c2ccc(F)c3F)[C@@H]2COCCN12" , state its recorded pKd.
Response: 6.68

----------
Target: VISTA (V-type immunoglobulin domain–containing suppressor of T-cell activation) (Homo sapiens)
Construct: gene VSIR; human VISTA protein
Sequence (Q9H7M9 33-194 limits assumed): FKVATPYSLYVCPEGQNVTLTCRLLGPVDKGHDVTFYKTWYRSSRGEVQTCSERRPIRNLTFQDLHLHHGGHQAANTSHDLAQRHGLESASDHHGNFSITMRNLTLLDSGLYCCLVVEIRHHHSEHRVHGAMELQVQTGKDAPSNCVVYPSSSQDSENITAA
Assay: SPR (Biacore T200, human VISTA immobilized on CM5 chip)
Format: binding
quantityKind: pKd
Numbers only, as −log10 of the molar value.

Request: Given COC(=O)OCOc1c2n(ccc1=O)N([C@@H]1c3ccccc3SCc3c1ccc(F)c3F)[C@@H]1COCCN1C2=O [BXM, baloxavir marboxil] , state its recorded pKd.
Response: 5.97
